System: Fibroblast
Test: Multiplex assay against human fibroblast
Assay type: toxicity, cell-based
Settings: 48 h, 1 µM, compound concentration 1 uM, replicate 1
result.type: Population Mitochondria Different-Phenotype (%)
Numeric only. Scale: %

Determine its reported Population Mitochondria Different-Phenotype (%): O=S(=O)(c1ccccc1)c1cnc2c(N3CCNCC3)cccc2c1 [INTEPIRDINE]
2

Look up and report measured Population Mitochondria Different-Phenotype (%) for this entry: N[C@@]1(C(=O)O)CO[C@H]2[C@H](C(=O)O)[C@H]21 [LY-379268]
5

Write down Population Mitochondria Different-Phenotype (%) measured for item CN(C)CCCc1cc(C(=O)Nc2ccc(-c3ccncc3)cc2)ccc1O.Cl.Cl
1

Assign Population Mitochondria Different-Phenotype (%) to the following record: Oc1c(CN2CCN(c3ccccn3)CC2)cc(Cl)c2cccnc12
1

Write down Population Mitochondria Different-Phenotype (%) measured for item Cc1ccc(/C(=C\CN2CCCC2)c2ccccn2)cc1 [TRIPROLIDINE]
2

Please supply the value of reported Population Mitochondria Different-Phenotype (%) for the item CSc1ccccc1N1CCN(CCCCCC(=O)NC2CCCc3ccccc32)CC1.Cl (centres undefined)
17

Specify measured Population Mitochondria Different-Phenotype (%) for CC1(COc2ccc3c(c2)ncn3-c2ccc3cccc(N4CCC(N)CC4)c3n2)COC1 [CRENOLANIB] .
8

Return the recorded Population Mitochondria Different-Phenotype (%) value; entry: Cc1ccc(C(C)(O)c2nc3ccccc3s2)c(C)c1 (centres undefined)
3

// fetch Population Mitochondria Different-Phenotype (%) given entry CN(C)c1ccnc2sc3c(=O)n(N4CCCCCC4)cnc3c12
0

Could you please provide reported Population Mitochondria Different-Phenotype (%) for Cl.Clc1ccc2nsnc2c1NC1=NCCN1 [TIZANIDINE HYDROCHLORIDE] ? Thanks!
1

State its Population Mitochondria Different-Phenotype (%): CN1CCN(c2nc3cc(C(F)(F)F)ccc3n3cccc23)CC1.O=C(O)/C=C\C(=O)O.O=C(O)/C=C\C(=O)O
2

Using the record for COc1cc(NC(=O)CCN2CCC(OC(=O)Nc3ccccc3-c3ccccc3)CC2)c(Cl)cc1CNC[C@H](O)c1ccc(O)c2[nH]c(=O)ccc12 [BATEFENTEROL] , state its measured Population Mitochondria Different-Phenotype (%).
18

Retrieve Population Mitochondria Different-Phenotype (%) measured for Cc1ccccc1C(=O)Nc1ccc(C(=O)N2CCCC(N(C)C)c3ccccc32)cc1.Cl (centres undefined) and print it.
4

In one line, give reported Population Mitochondria Different-Phenotype (%) of the entry COc1cc(C(=O)N(CCCc2ccccc2)Cc2ccc(CC(=O)O)cc2)cc(OC)c1C .
0

Supply measured Population Mitochondria Different-Phenotype (%) of CC(C)(C)c1ccc(S(=O)(=O)Nc2ccc(Cl)cc2C(=O)c2cc[n+]([O-])cc2)cc1 [VERCIRNON] in your reply.
1

Annotate the molecule O=C(O)c1cc2ccccc2c(Cc2c(O)c(C(=O)O)cc3ccccc23)c1O [PAMOIC ACID] with its measured Population Mitochondria Different-Phenotype (%).
2

Determine from records and report Population Mitochondria Different-Phenotype (%) for O=C(NCCO)c1cccc(-c2cc(Nc3ccc(OC(F)(F)F)cc3)ncn2)c1
1

Given the molecule CCOc1c2c(c(OCC)c3ncccc13)CN(c1ccc(CS(=O)(=O)NC(=O)Cc3ccccc3OC)cc1C)C2=O , write its reported Population Mitochondria Different-Phenotype (%).
3

Consider the molecule Cc1ccc(F)cc1C(=O)Nc1ccc(C(=O)N2Cc3cccn3Cc3ccccc32)c(Cl)c1 [LIXIVAPTAN] and give its recorded Population Mitochondria Different-Phenotype (%).
3

Source of measurements: ChEMBL document CHEMBL5058577
